Every entry's value here was drawn from patent US6391595B1.

Entries and their measured Production rate of di- and trisaccharides follow.
# target desc: swine pancreatic α-amylase (Sus scrofa)
# Construct: purchased Sigma Co. A-6255
# Sequence (P00690 16-511): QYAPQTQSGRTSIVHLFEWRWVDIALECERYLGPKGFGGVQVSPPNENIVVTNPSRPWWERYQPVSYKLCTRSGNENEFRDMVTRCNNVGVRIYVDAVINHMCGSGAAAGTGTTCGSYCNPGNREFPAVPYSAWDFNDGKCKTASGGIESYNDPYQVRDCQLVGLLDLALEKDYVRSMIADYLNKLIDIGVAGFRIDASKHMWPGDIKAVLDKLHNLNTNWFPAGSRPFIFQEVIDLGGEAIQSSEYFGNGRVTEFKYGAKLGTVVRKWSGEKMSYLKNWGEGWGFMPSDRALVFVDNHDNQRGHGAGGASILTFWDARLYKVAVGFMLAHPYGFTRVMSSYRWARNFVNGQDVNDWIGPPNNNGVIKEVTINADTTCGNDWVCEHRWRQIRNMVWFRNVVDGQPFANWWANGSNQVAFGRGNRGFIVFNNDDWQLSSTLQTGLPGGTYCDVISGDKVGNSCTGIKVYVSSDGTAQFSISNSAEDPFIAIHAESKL
# assay notes: Hydrolysis of oligosaccharides by pancreatic α-amylase (comparative)
# Assay type: biochemical
# measurement conditions: 1 Unit/ml α-amylase; 10 mM substrate; pH 6.9, 20° C.; 1 Unit = 1 umol per hour

Examples with their reported Production rate of di- and trisaccharides follow.
>>> reported_value("OCC1OC(OC2OC(CO)C(OC3OC(CO)C(OC4OC(CO)C(OC5OC(CO)C(O)C(O)C5O)C(O)C4O)C(O)C3O)C(O)C2O)C(O)C(O)C1O [Maltotriosyltrehalose, α-D-maltotetraosyl α-D-glucopyranoside]")
"0.03 units/ml"
>>> reported_value("OCC1OC(OC2OC(CO)C(OC3OC(CO)C(O)C(O)C3O)C(O)C2O)C(O)C(O)C1O [Glucosyltrehalose, α-D-maltosyl α-D-glucopyranoside]")
"0 units/ml"
>>> reported_value("OC[C@H]1O[C@H](O[C@H]2O[C@H](CO)[C@@H](O[C@H]3O[C@H](CO)[C@@H](O[C@H]4O[C@H](CO)[C@@H](O[C@H]5O[C@H](CO)[C@@H](O[C@H]6O[C@H](CO)[C@@H](O)[C@H](O)[C@H]6O)[C@H](O)[C@H]5O)[C@H](O)[C@H]4O)[C@H](O)[C@H]3O)[C@H](O)[C@H]2O)[C@H](O)[C@@H](O)[C@@H]1O [Maltotetraosyltrehalose]")
"2.57 units/ml"

Next molecule, please.
Task item: Please report the recorded Production rate of di- and trisaccharides for OC[C@H]1O[C@H](O[C@H]2[C@H](O)[C@@H](O)[C@@H](O[C@H]3[C@H](O)[C@@H](O)C(O)O[C@@H]3CO)O[C@@H]2CO)[C@H](O)[C@@H](O)[C@@H]1O (mixture of isomers) [Maltotriose (G3), Maltotriose] .
Reply: 0 units/ml
